Target: Porcine Ventricle myofibrils (left ventricle of Yucatan minipigs) (Sus scrofa, UniProt P79293)
Construct: Myofibrils from porcine cardiac muscle was isolated from the left ventricle of Yucatan minipigs; tissue Exemplar Genetics; host or cells: left ventricle of Yucatan minipigs
Sequence (P79293 whole entry): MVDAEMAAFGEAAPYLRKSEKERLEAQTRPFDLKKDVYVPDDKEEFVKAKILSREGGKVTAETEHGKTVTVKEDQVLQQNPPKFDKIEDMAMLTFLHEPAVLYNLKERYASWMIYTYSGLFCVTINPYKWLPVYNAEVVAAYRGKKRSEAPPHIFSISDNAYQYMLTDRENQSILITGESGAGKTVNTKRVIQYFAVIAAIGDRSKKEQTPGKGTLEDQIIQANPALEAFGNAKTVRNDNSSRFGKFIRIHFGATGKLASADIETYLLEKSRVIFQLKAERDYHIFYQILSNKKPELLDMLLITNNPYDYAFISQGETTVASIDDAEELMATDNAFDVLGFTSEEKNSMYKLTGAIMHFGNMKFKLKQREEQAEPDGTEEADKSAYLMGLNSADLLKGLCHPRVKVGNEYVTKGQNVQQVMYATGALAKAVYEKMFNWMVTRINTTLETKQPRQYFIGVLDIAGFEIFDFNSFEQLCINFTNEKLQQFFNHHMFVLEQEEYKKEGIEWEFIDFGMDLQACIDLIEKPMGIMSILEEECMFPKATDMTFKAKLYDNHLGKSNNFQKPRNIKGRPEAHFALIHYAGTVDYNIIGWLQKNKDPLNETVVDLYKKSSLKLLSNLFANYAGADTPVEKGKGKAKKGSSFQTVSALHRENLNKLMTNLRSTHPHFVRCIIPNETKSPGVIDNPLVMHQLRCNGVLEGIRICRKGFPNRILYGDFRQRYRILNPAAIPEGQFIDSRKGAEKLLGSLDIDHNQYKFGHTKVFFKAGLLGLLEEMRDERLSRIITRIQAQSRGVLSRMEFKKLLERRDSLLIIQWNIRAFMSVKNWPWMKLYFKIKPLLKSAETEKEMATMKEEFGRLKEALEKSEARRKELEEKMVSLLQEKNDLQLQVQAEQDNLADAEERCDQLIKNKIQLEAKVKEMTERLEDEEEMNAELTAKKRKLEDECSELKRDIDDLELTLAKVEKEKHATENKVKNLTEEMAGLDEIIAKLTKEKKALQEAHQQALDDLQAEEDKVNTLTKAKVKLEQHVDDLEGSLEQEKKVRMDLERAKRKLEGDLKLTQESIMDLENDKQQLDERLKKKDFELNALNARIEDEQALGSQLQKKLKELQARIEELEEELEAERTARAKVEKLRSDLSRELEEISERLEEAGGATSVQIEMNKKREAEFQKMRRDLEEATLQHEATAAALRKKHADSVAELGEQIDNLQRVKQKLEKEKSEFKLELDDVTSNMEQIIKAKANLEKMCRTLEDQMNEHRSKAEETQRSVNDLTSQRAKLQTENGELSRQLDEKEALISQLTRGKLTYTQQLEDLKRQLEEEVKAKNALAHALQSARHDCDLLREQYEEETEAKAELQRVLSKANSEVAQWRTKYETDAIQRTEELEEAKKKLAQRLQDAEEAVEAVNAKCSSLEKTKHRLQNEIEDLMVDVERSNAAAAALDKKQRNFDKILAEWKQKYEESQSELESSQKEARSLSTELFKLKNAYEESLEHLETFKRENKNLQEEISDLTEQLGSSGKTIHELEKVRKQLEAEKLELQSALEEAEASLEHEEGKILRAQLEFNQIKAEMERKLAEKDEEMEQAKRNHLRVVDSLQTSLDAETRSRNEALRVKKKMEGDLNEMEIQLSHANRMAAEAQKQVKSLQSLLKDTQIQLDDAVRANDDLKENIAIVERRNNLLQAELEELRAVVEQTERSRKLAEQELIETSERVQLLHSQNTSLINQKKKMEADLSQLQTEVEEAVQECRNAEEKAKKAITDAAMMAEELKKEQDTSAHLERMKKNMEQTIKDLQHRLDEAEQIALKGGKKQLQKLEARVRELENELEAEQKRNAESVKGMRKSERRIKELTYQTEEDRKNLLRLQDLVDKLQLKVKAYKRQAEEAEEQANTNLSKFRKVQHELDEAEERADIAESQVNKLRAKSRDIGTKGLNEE
Experiment: Myofibril ATPase assay (PK/LDH NADH-coupled), ventricle myofibrils
Type: biochemical
Details: Table 8
ENDPOINT: Porcine Ventricle IC25 (µM)

Observe how each entry below is paired with its result.
Query: Consider the compound O=C(CN1Cc2c(ccc(F)c2F)NC1=O)N[C@H]1COCc2cc(F)cnc21 and give its measured Porcine Ventricle IC25.
Result: 100.00

Query: Consider the compound shown here: N#Cc1c(F)ccc2c1CN(CC(=O)N[C@H]1COc3cc(F)cc(F)c31)C(=O)N2 What is its recorded Porcine Ventricle IC25?
Result: 55.23

Query: Which Porcine Ventricle IC25 reading was recorded for the compound C[C@@H](NC(=O)CN1C(=O)Nc2ccc(F)c(F)c2C12CC2)c1ncc(C#N)cc1F ?
Result: 0.32

1. C[C@H](NC(=O)CN1Cc2cc(C#N)ccc2NC1=O)c1ncc(F)cc1F
2. [2H]C1([2H])c2c(ccc(F)c2F)NC(=O)N1CC(=O)N[C@@H](C)c1ncc(C#N)cc1F
3. C[C@@H](NC(=O)CN1Cc2c(ccc(F)c2F)NC1=O)c1ncc(C#N)cn1
Query: Sort (3 compounds) by Porcine Ventricle IC25: min first. A complete answer lists every label in the requested sequence.
Result: 2, 3, 1

1. C[C@@H](NC(=O)CN1Cc2c(ccc(F)c2F)NC1=O)c1nnc(-c2ccccc2F)s1
2. Cc1cc(C(C)NC(=O)CN2Cc3c(ccc(F)c3F)NC2=O)ncc1F (single isomer, unassigned)
3. C[C@H](NC(=O)CN1Cc2cc(F)cc(C#N)c2NC1=O)c1ccc(C#N)cc1F
Query: Task field, ranking: reported Porcine Ventricle IC25, descending order. // respond by listing labels in the order requested
Result: 1, 3, 2
(1: 100 µM, 3: 15.59 µM, 2: 0.2987 µM)

A. Cc1cc(C#N)nnc1[C@@H](C)NC(=O)CN1C(=O)Nc2ccc(F)cc2C12CC2
B. O=C(CN1Cc2c(ccc(F)c2F)NC1=O)NC1COCc2cc(F)ccc21 (single isomer, unassigned)
C. C[C@@H](NC(=O)CN1Cc2cc(F)ccc2NC1=O)c1ccc(C#N)cc1
Query: Please put the entries in order of rising Porcine Ventricle IC25. // respond by listing labels in the order requested
Result: B, C, A

* * *

Test system: Porcine Atria myofibrils
Assay: Myofibril ATPase assay (PK/LDH NADH-coupled), atria myofibrils
Format: biochemical
Details: Table 7
ENDPOINT: Porcine Atria IC25 (µM)

Sample answers from the record:
Query: I would be grateful if you could share the reported Porcine Atria IC25 for COc1ccc2c(n1)C1(CC1)N(CC(=O)N[C@@H](C)c1ncc(F)cc1F)C(=O)N2 .
Result: 0.13

Query: Request the reported Porcine Atria IC25 associated with C[C@H](NC(=O)CN1C(=O)Nc2cccnc2[C@@H]1C)c1ccc(F)cc1F
Result: 26.68

Query: Give its Porcine Atria IC25 value. Item: C[C@H](NC(=O)CN1Cc2c(ccnc2C(F)(F)F)NC1=O)c1ncc(F)cc1F
Result: 8.03

Query: Give the measured Porcine Atria IC25 of C[C@H](NC(=O)[C@H](C)N1Cc2nc(C#N)ccc2NC1=O)c1ccc(F)cc1F .
Result: 14.99

Query: Name the recorded Porcine Atria IC25 for C[C@@H](NC(=O)CN1Cc2cc(Cl)cnc2NC1=O)c1ncc(F)cc1F .
Result: 100.00

Query: What value of Porcine Atria IC25 has been reported for the following compound? C[C@H](NC(=O)CN1C(=O)Nc2cccnc2C12COC2)c1ncc(F)cc1F
Result: 35.72

Query: Entry under review: C[C@H](NC(=O)CN1Cc2nc(OC3CC3)ccc2NC1=O)c1ccc(F)cc1F . Reported Porcine Atria IC25?
Result: 22.12

Query: Please look up its Porcine Atria IC25: N#Cc1cc(F)c2c(c1)OC[C@@H]2NC(=O)CN1Cc2c(ccnc2C(F)(F)F)NC1=O
Result: 2.82

Query: What value of Porcine Atria IC25 has been recorded for this entry: O=C(CN1Cc2c(ccnc2C(F)(F)F)NC1=O)N[C@H]1COc2cc(F)cc(F)c21
Result: 2.00

Query: Quick one: Porcine Atria IC25 of C[C@H](NC(=O)CN1Cc2c(ccnc2OC2CC2)NC1=O)c1ccc(F)cc1F ?
Result: 4.38

1. Cc1c(F)cnc2c1CN(CC(=O)N[C@@H](C)c1ccc(F)cc1F)C(=O)N2
2. C[C@H](NC(=O)CN1C(=O)Nc2ccc(C#N)nc2C12CC2)c1ncc(C#N)cc1F
3. N#Cc1nccc2c1CN(CC(=O)N[C@@H]1COc3cc(F)cc(F)c31)C(=O)N2
4. CC(NC(=O)CN1Cc2c(ccnc2C(N)=O)NC1=O)c1ncc(F)cc1F (centres unmarked)
Query: Would you mind ranking these compounds by ascending Porcine Atria IC25? Rank them, then answer with their labels in that order.
Result: 2, 3, 1, 4
(2: 0.07 µM, 3: 0.11 µM, 1: 12.15 µM, 4: 100.00 µM)

P. C[C@H](NC(=O)CN1Cc2c(ccnc2C#N)NC1=O)c1ccc(F)cc1F
Q. N#Cc1nccc2c1CN(CC(=O)N[C@H]1COc3cc(F)cc(F)c31)C(=O)N2
Query: # argmax over Porcine Atria IC25 for candidates P and Q Field: selected label. Fill in the label of the entry you choose.
Result: Q
